Assay: ATG_MRE_CIS: Attagene CIS-FACTORIAL HepG2 Assay for human Metal Responsive Element (MRE) (AID 2282954)
Conditions: HepG2 MRE cis-reporter transcription, Attagene multiplex; actives raise or lower the signal
The source made the active and inactive calls. How the source made its calls: active means hit-call score of the fitted dose curve at least 0.9, where 1 is the maximum; inactive means score below 0.9.
Labels: active, inactive

molecule=CC(C)=CCO class=inactive
molecule=CN(C)c1ccc(O)c2c1C[C@H]1C[C@H]3[C@H](N(C)C)C(=O)C(C(N)=O)=C(O)[C@@]3(O)C(=O)C1=C2O class=inactive
molecule=CCOC(=O)c1ccccc1OC class=inactive
molecule=CCCCOCCOCCSC#N class=inactive
molecule=CC(=O)OCc1ccc2c(c1)OCO2 class=inactive
molecule="CC(=O)OCCC(C)CC(C)(C)C (centres undefined)" class=inactive
molecule=c1ccc2[nH]ccc2c1 class=inactive
molecule="C=CC(C)(CCC=C(C)C)OC=O (centres undefined)" class=inactive
molecule=[Ca+2] class=inactive
molecule="CC1CC(OC(=O)c2ccccc2O)CC(C)(C)C1 (centres undefined)" class=inactive
molecule=CCn1c2ccccc2c2cc(N)ccc21 class=inactive
molecule=O=C1CCCCCCCCCCOCCCCO1 class=active
molecule=CCC(=O)OCc1ccccc1 class=inactive
molecule="NC(=O)NC1NC(=O)NC1=O (centres undefined)" class=inactive
molecule="CN(CCOc1ccc(CC2SC(=O)NC2=O)cc1)c1ccccn1 (centres undefined)" class=inactive
molecule=O=C1C(c2[nH]c3ccc(S(=O)(=O)O)cc3c2O)=Nc2ccc(S(=O)(=O)O)cc21 class=inactive
molecule=C=CC(=O)OCCn1c(=O)n(CCOC(=O)C=C)c(=O)n(CCOC(=O)C=C)c1=O class=active
molecule="COc1ccnc(CS(=O)c2nc3cc(OC(F)F)ccc3[nH]2)c1OC (centres undefined)" class=inactive
molecule=O=Cc1ccc(F)cc1 class=inactive
molecule=O=c1oc(=O)c2cc3c(=O)oc(=O)c3cc12 class=inactive
molecule=C/C=C(\C)C(=O)OCc1ccccc1 class=inactive
molecule=CCCCCCCCCCCCCCCC(=O)OC[C@H](O)[C@H]1OC(=O)C(O)=C1O class=inactive
molecule=CCCCNC(=O)NS(=O)(=O)c1ccc(N)cc1 class=inactive
molecule=CCCC(=O)C(C)=O class=inactive
molecule="CC(c1cc2ccccc2s1)N(O)C(N)=O (centres undefined)" class=inactive
molecule="CCCC(C)C=O (centres undefined)" class=inactive
molecule=CCCC[n+]1ccccc1 class=inactive
molecule=Clc1nc(C(Cl)(Cl)Cl)c(Cl)c(Cl)c1Cl class=active
molecule=O=Cc1ccc(Cl)c([N+](=O)[O-])c1 class=active
molecule=CC(C)(C)c1n[nH]c(=S)n(N)c1=O class=inactive
molecule="COC(=O)C1=C(C)NC(C)=C(C(=O)OCCN(C)Cc2ccccc2)C1c1cccc([N+](=O)[O-])c1 (centres undefined)" class=active
molecule=OCCCCCO class=inactive
molecule=Cc1ccc(C=O)s1 class=inactive
molecule=O=C(O)Cc1cccc2ccccc12 class=inactive
molecule=Cc1ccc2n[nH]nc2c1 class=inactive
molecule=COC(=O)c1ccc(C)cc1 class=inactive
molecule=COc1ccc(OC)c(OC)c1 class=inactive
molecule=Cc1ccc(C=O)cc1 class=inactive
molecule=Cc1ccc(O)c(C(C)(C)C)c1 class=active
molecule=CCCCCCCCCCCCSC class=inactive
molecule=CN(C)CCCN class=inactive
molecule=OCC(CO)(CO)COCC(CO)(CO)CO class=inactive
molecule=N#Cc1ccc(CC(=NNC(=O)Nc2ccc(OC(F)(F)F)cc2)c2cccc(C(F)(F)F)c2)cc1 class=inactive
molecule=CCCCC/C=C/C=C/C=O class=inactive
molecule=O=C1CCc2ccccc2O1 class=inactive
molecule=N#Cc1nc(Cl)c(Cl)c(Cl)c1Cl class=active
molecule=O=c1[nH]c(=O)n([C@H]2CCCO2)cc1F class=inactive
molecule=C=C(C)C(=O)O class=inactive
molecule="CC1CCC(C(C)(C)O)CC1 (centres undefined)" class=inactive
molecule=O=[N+]([O-])c1cc(C(F)(F)F)ccc1Cl class=inactive
molecule=CC(C)(C#N)c1cc(Cn2cncn2)cc(C(C)(C)C#N)c1 class=inactive
molecule=O=[N+]([O-])c1ccc(C=Cc2ccc([N+](=O)[O-])cc2S(=O)(=O)O)c(S(=O)(=O)O)c1 class=inactive
molecule="COCCCOc1ccnc(CS(=O)c2nc3ccccc3[nH]2)c1C (centres undefined)" class=active
molecule=C[Si](O[Si](C)(C)C)O[Si](C)(C)C class=inactive
molecule=CC(=O)C(C)=O class=inactive
molecule=CC1(C)C(=O)N(Br)C(=O)N1Cl class=inactive
molecule="COC(C(=O)O)c1ccccc1 (centres undefined)" class=inactive
molecule=CC(C)=CCCC(C)=CCCC(C)=CCO class=inactive
molecule=CCCCCC(=O)OCCc1ccccc1 class=inactive
